# ASSAYED TARGET: BTK (Homo sapiens)
# Construct: High control=Cell group with added DMSO and without compound, indicating microplate readings without BTK degradation; endogenous in cells; host or cells: TMD-8 cells
# Sequence (Q06187 whole entry): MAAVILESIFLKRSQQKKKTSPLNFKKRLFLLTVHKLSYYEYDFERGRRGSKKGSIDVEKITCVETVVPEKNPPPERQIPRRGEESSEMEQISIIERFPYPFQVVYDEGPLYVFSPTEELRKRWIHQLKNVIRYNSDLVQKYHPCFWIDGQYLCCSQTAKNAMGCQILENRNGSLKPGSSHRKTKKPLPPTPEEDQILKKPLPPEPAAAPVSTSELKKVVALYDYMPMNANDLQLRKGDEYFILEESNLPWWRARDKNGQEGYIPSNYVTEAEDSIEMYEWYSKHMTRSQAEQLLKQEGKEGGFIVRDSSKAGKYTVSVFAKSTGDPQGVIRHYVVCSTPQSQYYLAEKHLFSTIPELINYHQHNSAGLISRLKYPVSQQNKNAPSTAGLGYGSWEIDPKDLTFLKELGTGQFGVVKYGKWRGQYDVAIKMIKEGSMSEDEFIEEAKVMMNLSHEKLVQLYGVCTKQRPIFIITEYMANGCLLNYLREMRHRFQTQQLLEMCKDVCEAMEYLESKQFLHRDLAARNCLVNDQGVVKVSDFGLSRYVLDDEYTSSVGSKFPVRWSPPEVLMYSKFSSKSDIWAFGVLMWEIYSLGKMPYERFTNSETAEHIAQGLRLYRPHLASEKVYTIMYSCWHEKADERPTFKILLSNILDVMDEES
# EXPERIMENT SUMMARY: Cell Degradation: BTK degradation in TMD-8 cells, HTRF assay
# Format: cell-based
# DETAILS: 6 h treatment, IC50 (DC50) of BTK degradation
OBSERVATION TYPE: DC50

MOLECULE	ASSAY VALUE
Cc1cc(-c2ncnc3[nH]c(-c4ccc(N5CCN(CC6CCN(c7cc(F)ccc7N7CCC(=O)NC7=O)CC6)CC5)cc4)cc23)ccc1[C@@H](C)NC(=O)c1nc(C(C)(C)C)no1 [Example 43]	> 2000 nM
Cc1cc(-c2ncnc3[nH]c(-c4ccc(N5CCN(CC6CCN(c7ccc(N8CCC(=O)N(C)C8=O)cc7)CC6)CC5)cn4)cc23)ccc1[C@@H](C)NC(=O)c1nc(C(C)(C)C)no1 [Example 110]	> 2000 nM
Cc1cc(-c2ncnc3[nH]c(-c4ccc(N5CCN([C@H]6C[C@@H](c7ccc(O[C@@H]8CCC(=O)NC8=O)cc7)C6)CC5)nc4)cc23)ccc1[C@@H](C)NC(=O)c1nc(C(C)(C)C)no1 [Example 192]	> 2000 nM
